- target_system: Human LAG3 protein (Homo sapiens, UniProt P18627)
- procedure_text: SPR interaction assay, CM5 chip amino coupling, human LAG3
- experimental_parameters: ligand Human LAG3 protein, Compound 9 fitted in steady-state mode
recorded_metric: Kd (µM)
Give the number; µM is assumed, so skip it.

The cases that follow already have their Kd on record.
{"columns": ["smiles_text", "unit_info", "Kd"],
 "data": [
  ["CCCCCCOc1ccc(C(=O)O)cc1-c1cc(C(=O)NCCCNC(=O)C(F)(F)F)ccc1OCCCCCC", "µM", 324],
  ["CCCCCCOc1ccc2cc1-c1cc(ccc1OCCCCCC)C(=O)CCCCCC2=O", "µM", 52.9]
]}

Shifting focus to the compound that follows.
Ask | # input compound: CCCCCCOc1ccc(C(=O)O)cc1-c1cc(C(=O)NCCCCNC(=O)C(F)(F)F)ccc1OCCCCCC ; wanted: its Kd
Reply | 7.76

###

- target_system: LAG3/FGL1 (Homo sapiens)
- Sequence (P18627 23-450 limits assumed): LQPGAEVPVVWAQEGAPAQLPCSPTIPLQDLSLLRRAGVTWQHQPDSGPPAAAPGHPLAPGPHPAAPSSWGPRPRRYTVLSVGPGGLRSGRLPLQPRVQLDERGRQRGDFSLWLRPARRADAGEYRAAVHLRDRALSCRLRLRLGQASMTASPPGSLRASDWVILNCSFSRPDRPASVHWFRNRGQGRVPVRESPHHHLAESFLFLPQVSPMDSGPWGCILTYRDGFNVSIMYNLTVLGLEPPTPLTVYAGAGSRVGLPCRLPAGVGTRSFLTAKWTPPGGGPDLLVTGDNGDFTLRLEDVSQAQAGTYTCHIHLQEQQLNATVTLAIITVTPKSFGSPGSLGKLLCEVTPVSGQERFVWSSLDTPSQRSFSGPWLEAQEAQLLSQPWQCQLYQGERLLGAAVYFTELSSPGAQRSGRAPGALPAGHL
- procedure_text: HTRF binding inhibition of LAG3 and its ligand FGL1
- experimental_parameters: binding inhibition LAG3/FGL1; read-out: IC50
recorded_metric: pIC50
Worth noting: pIC50 values are minus log10 of concentrations stated in mol/L.

Ask | I'm curious: which pIC50 was measured for CCCCCCOc1ccc(C(=O)NCCCCNC(=O)C(F)(F)F)cc1-c1cc(C(=O)NCCCCNC(=O)C(F)(F)F)ccc1OCCCCCC tested on LAG3/FGL1 (Homo sapiens)?
Reply | 4.34

###

- target_system: LAG3/FGL1 (Homo sapiens)
- procedure_text: HTRF binding inhibition of LAG3 and its ligand FGL1
- experimental_parameters: Table 2; read-out: IC50 value for inhibiting LAG3/FGL1 interaction
recorded_metric: pIC50
In simple prose, pIC50 is minus the logarithm base ten of a concentration in moles per litre.

Ask | Consider the compound CCCCCCOc1ccc(C(=O)O)cc1-c1cc(C(=O)NCCCCNC(=O)C(F)(F)F)ccc1OCCCCCC and give its measured pIC50.
Reply | 5.00

###

- target_system: LAG3/MHCII (Homo sapiens, UniProt P18627)
- Sequence (P18627 23-450 limits assumed): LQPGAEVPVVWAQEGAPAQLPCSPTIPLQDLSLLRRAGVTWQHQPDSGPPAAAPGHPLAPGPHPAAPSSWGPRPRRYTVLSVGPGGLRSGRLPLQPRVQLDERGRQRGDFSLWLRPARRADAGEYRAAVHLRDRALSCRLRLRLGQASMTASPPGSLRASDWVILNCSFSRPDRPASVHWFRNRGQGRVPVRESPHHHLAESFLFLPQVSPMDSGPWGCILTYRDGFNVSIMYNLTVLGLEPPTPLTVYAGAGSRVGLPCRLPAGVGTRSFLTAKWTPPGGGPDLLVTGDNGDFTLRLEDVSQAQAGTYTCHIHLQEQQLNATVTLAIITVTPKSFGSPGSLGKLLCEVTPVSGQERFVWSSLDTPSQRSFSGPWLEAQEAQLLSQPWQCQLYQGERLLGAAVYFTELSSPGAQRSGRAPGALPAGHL
- procedure_text: HTRF binding inhibition of LAG3 and its ligand MHCII
- experimental_parameters: binding inhibition LAG3/MHCII
As shown below, each of these molecules has a reported IC50 value.
# unit: µM | format: bare number

{"columns": ["molecule", "recorded_metric", "result"],
 "data": [
  ["CCCCCCOc1ccc(C(=O)O)cc1-c1cc(C(=O)NCCCCCNC(=O)C(F)(F)F)ccc1OCCCCCC [Compound 10]", "IC50", 9.91],
  ["CCCCCCOc1ccc(C(=O)O)cc1-c1cc(C(=O)NCCNC(=O)C(F)(F)F)ccc1OCCCCCC [Compound 11]", "IC50", 7.96]
]}

Ask | Field request: IC50 | item: CCCCCCOc1ccc(C(=O)O)cc1-c1cc(C(=O)NCCCCNC(=O)C(F)(F)F)ccc1OCCCCCC [Compound 8]
Reply | 8.34
